- Target desc: furin, P09958;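 note: purified furin at 1:10 enzyme:substrate in 50 mM HEPES pH 7.5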
- Sequence (P09958 whole entry): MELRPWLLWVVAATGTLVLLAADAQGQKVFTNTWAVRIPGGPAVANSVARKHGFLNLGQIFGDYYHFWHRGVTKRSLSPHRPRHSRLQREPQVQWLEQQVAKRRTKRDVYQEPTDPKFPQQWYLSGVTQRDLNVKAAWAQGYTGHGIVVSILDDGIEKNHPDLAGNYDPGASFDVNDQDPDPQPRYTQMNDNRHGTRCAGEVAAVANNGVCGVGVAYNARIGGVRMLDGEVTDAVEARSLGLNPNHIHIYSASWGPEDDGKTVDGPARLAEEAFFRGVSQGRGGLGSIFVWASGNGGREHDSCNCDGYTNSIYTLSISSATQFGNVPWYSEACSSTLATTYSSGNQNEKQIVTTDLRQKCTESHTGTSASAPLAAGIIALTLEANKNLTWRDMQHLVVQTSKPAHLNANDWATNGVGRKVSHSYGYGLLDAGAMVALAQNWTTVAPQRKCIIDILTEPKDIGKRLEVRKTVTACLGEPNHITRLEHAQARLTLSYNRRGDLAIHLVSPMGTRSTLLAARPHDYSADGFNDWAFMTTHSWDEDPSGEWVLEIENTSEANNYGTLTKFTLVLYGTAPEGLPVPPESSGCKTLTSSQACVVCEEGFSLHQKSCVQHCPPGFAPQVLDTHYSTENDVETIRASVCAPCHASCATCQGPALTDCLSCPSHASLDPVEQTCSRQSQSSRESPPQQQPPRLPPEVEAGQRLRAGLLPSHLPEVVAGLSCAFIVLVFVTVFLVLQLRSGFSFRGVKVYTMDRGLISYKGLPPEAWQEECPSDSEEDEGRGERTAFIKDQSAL
- Assay overview: furin cleavage Z-score vs untreated control; higher = more cleavage, active = 3.5 or more, inactive = 1 or less, 8 variable residues between constant flanks
- Condition details: 7.5 min
Some of the results follow. The hit rate among all sequences tested is not known here.
So basically: furin cleavage Z-score at 2 or higher? That is condition met. Lower than 2? That is condition not met.

Some solved entries appear below for comparison.
CAIPKRLRRSAGNASASA [FS-35] = condition not met
CARLKRQVTEAGNASASA [FS-2992] = condition met
CAAWRHRARSAGNASASA [HC1620] = condition not met

Check the entry CARSGAPTYSAGNASASA [HC421] : does furin cleavage Z-score equal or exceed 2?
condition not met

Given the entry CARSGRRRRSAGNASASA [FS-88] , answer whether its furin cleavage Z-score meets or surpasses 2.
condition met

Check this sequence for furin cleavage Z-score at or above 2: CARLKRQPCAAGNASASA [FS-3227]
condition not met
